Origin of the recorded values: ChEMBL document CHEMBL3046531

Tested on: Mus musculus
Assay: Analgesic activity in Mus musculus Swiss albino (mouse) assessed as protection against acetic acid-induced writhing response at 20 mg/kg, po administered 30 min before acetic acid challenge measured at 0.5 hr after challenge
Type: functional
Each entry falls in a class defined on Activity; the bands are low band: < 20%; middle band: ≥ 20% and < 50%; high band: ≥ 50%

1. Nc1nc(-c2ccc(Cl)cc2)cc(-c2cc3ccccc3oc2=O)n1 : low band

*Q* Input COc1ccccc1-c1cc(-c2cc3ccccc3oc2=O)nc(N)n1 ; output its category
*A* middle band

* * *

Test system: Mus musculus
Assay: Analgesic activity in Mus musculus Swiss albino (mouse) assessed as protection against acetic acid-induced writhing response at 20 mg/kg, po administered 30 min before acetic acid challenge measured at 1 hr after challenge
Assay type: functional
Categories are assigned from the measured Activity using these intervals: Low: < 30%; Mid: ≥ 30% and < 50%; High: ≥ 50%

1. O=C([O-])Cc1ccccc1Nc1c(Cl)cccc1Cl.[Na+] [DICLOFENAC SODIUM] : High
2. Nc1nc(-c2cccc(Cl)c2)cc(-c2cc3ccccc3oc2=O)n1 : High
3. Nc1nc(-c2ccc(Cl)cc2)cc(-c2cc3ccccc3oc2=O)n1 : Low
4. Nc1nc(-c2ccccc2Cl)cc(-c2cc3ccccc3oc2=O)n1 : Low
5. Nc1nc(-c2cccc(Br)c2)cc(-c2cc3ccccc3oc2=O)n1 : Mid
6. COc1cccc(-c2cc(-c3cc4ccccc4oc3=O)nc(N)n2)c1 : High

Consider now this further compound.
*Q* Given COc1ccccc1-c1cc(-c2cc3ccccc3oc2=O)nc(N)n1 , name the class its Activity places it in.
*A* Mid

* * *

System: Mus musculus
Experiment: Analgesic activity in Mus musculus Swiss albino (mouse) assessed as protection against acetic acid-induced writhing response at 20 mg/kg, po administered 30 min before acetic acid challenge measured at 2 hr after challenge
Assay type: functional
experimental readout: Activity (%)
Report as a plain number; the unit % is understood.

Sample records with Activity:
1. Nc1nc(-c2ccc(Br)cc2)cc(-c2cc3ccccc3oc2=O)n1 : 26.59
2. COc1cccc(-c2cc(-c3cc4ccccc4oc3=O)nc(N)n2)c1 : 49.3
3. O=C([O-])Cc1ccccc1Nc1c(Cl)cccc1Cl.[Na+] [DICLOFENAC SODIUM] : 93.35
4. Nc1nc(-c2ccc(Cl)cc2)cc(-c2cc3ccccc3oc2=O)n1 : 10.8
5. Nc1nc(-c2ccccc2Cl)cc(-c2cc3ccccc3oc2=O)n1 : 11.63

*Q* Check the records and state Activity for Nc1nc(-c2ccccc2Br)cc(-c2cc3ccccc3oc2=O)n1
*A* 27.7

*Q* State its Activity for this molecule: Nc1nc(-c2cccc(Cl)c2)cc(-c2cc3ccccc3oc2=O)n1
*A* 56.5

*Q* Retrieve Activity measured for Nc1nc(-c2cccc(Br)c2)cc(-c2cc3ccccc3oc2=O)n1 and print it.
*A* 31.57

*Q* Quick one: give measured Activity for COc1ccccc1-c1cc(-c2cc3ccccc3oc2=O)nc(N)n1
*A* 33.79

* * *

Test system: Mus musculus
Assay: Analgesic activity in Mus musculus Swiss albino (mouse) assessed as protection against acetic acid-induced writhing response at 20 mg/kg, po administered 30 min before acetic acid challenge measured at 0.5 hr after challenge
Format: functional
experimental readout: Activity

1) Nc1nc(-c2ccc(Br)cc2)cc(-c2cc3ccccc3oc2=O)n1 : 28.16%
2) Nc1nc(-c2ccccc2Br)cc(-c2cc3ccccc3oc2=O)n1 : 23.41%
3) Nc1nc(-c2cccc(Br)c2)cc(-c2cc3ccccc3oc2=O)n1 : 25.94%

# next molecule below
*Q* Look up and report measured Activity for this entry: O=C([O-])Cc1ccccc1Nc1c(Cl)cccc1Cl.[Na+] [DICLOFENAC SODIUM]
*A* 91.13%
